Biological target: human ether-à-go-go-related gene (hERG) potassium channel (human, UniProt Q12809);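 further: peak tail current of the secondary pulse compared with the same well before compound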
Sequence (Q12809 whole entry, looked up): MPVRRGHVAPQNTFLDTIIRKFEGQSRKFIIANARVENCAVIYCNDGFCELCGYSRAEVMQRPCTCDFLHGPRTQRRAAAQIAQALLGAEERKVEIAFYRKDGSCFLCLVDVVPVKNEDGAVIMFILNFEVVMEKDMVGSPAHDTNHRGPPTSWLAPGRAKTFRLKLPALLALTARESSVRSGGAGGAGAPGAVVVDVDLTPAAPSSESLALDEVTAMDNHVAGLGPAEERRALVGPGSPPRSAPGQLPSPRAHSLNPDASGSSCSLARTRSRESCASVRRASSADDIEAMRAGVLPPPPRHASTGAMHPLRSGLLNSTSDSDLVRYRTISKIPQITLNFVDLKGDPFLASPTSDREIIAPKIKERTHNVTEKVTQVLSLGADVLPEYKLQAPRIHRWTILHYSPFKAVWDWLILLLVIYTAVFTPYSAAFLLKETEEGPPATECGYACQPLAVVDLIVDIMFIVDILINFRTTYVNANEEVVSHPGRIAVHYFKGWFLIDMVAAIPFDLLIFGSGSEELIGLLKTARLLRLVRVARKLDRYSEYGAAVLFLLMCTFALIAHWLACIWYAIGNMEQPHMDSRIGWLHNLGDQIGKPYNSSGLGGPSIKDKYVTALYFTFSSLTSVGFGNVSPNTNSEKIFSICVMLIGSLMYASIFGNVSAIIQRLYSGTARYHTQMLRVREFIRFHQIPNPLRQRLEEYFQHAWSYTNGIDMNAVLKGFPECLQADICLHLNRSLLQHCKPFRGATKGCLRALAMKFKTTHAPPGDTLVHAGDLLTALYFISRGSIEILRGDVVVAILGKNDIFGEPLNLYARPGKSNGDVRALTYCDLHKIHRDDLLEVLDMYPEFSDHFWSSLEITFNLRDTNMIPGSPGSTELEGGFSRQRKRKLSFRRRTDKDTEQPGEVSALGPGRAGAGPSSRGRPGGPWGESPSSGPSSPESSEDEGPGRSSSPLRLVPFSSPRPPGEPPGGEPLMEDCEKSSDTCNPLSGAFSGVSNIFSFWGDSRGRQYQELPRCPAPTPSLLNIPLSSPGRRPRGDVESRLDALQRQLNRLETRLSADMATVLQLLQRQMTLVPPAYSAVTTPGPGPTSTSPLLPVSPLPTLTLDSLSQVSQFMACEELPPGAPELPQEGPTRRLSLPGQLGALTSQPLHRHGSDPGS
Assay: primary screen, population patch clamp on CHO cells stably expressing hERG; higher = less effect of the substance
The campaign covered roughly 310,000 compounds. About 14,000 (4.5%) showed an effect of 50% or more. Effects have a minus sign here. What follows is part of a selection rich in strong results, with near analogues and random picks from the rest.
Measured hERG current change (%, negative = inhibition) at 10uM of individual entries
Answer in %, number only, no unit symbol.

Known hERG current change (%, negative = inhibition) at 10uM results, listed for orientation:
>>> quantitative_readout("CCCCCCn1c(CN2CCCCC2C)nc2c1c(=O)n(C)c(=O)n2C (stereo not shown)")
-60.5
>>> quantitative_readout("CCn1c(P(C)(=O)[O-])nc2ccccc21.[Na+]")
8.91
>>> quantitative_readout("CCOCCCn1c(=NC(=O)c2cccs2)c(C#N)cc2c(=O)n3cccc(C)c3nc21")
-74.1
>>> quantitative_readout("CC1=CC(=O)OC1Cc1ccncc1 (stereo not shown)")
11.3
>>> quantitative_readout("CCCn1c(CN2CCCCC2C)nc2c1c(=O)n(C)c(=O)n2C (stereo not shown)")
3.04
>>> quantitative_readout("Cc1ccccc1CN(c1ccc(C(=O)NCc2ccccn2)cc1)S(C)(=O)=O")
-35.4
>>> quantitative_readout("CCCn1c(CN2CCCCC2CC)nc2c1c(=O)n(C)c(=O)n2C (stereo not shown)")
-5.14
>>> quantitative_readout("CCCCn1c(=NC(=O)c2ccc3c(c2)OCO3)c(C#N)cc2c(=O)n3cccc(C)c3nc21")
-5.68
>>> quantitative_readout("c1cnc(SCCOc2cccc3ccccc23)nc1")
-8.05

Let's switch to this molecule now.
Q: Return hERG current change (%, negative = inhibition) at 10uM for the following molecule: Cc1ccc(N2C(=O)SC(Cc3ccccc3)C2=O)cc1 (stereo not shown)
A: 13.7

====

Target: human ether-à-go-go-related gene (hERG) potassium channel (human, UniProt Q12809);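 further: peak tail current of the secondary pulse compared with the same well before compound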
Assay: primary screen, population patch clamp on CHO cells stably expressing hERG; higher = less effect of the substance
Screen size: about 310,000 compounds; about 14,000 (4.5%) showed an effect of 50% or more. Effects have a minus sign here. For the sample, strong results were picked, then their nearest neighbours and some compounds at random.
Measured hERG current change (%, negative = inhibition) at 10uM of individual entries
Answer in %, number only, no unit symbol.

Known hERG current change (%, negative = inhibition) at 10uM results, listed for orientation:
>>> quantitative_readout("COc1ccc(C2C3=C(CC(C)(C)CC3=O)Nc3c2c(=O)[nH]c(=O)n3Cc2ccccc2)cc1OC (centres unmarked)")
-3.11
>>> quantitative_readout("Cc1cccc(CSC2=NCCN2S(=O)(=O)c2ccc(F)cc2)c1")
-0.802
>>> quantitative_readout("CCOC(=O)N1CCN(c2ccc(C(=O)c3ccccc3)cc2F)CC1")
-50.8
>>> quantitative_readout("CCOC(=O)C1=C(C)N=C2SC(C)C(=O)N2C1c1cccc(F)c1 (centres unmarked)")
-3.16
>>> quantitative_readout("CN1CCN(C(=O)c2ccc3nc(-c4ccccc4)c(-c4ccccc4)nc3c2)CC1")
6.03
>>> quantitative_readout("CCCC(=O)c1ccc(N2CCN(C(=O)c3ccccc3Br)CC2)c(F)c1")
-23.7
>>> quantitative_readout("Cc1ccc(SCc2[nH]nc3c2C(c2cccnc2)C(C#N)=C(N)O3)cc1 (centres unmarked)")
-2.64
>>> quantitative_readout("FC(F)(F)c1cccc(-c2noc(CN3CCOCC3)n2)c1")
6.74

Q: Return hERG current change (%, negative = inhibition) at 10uM for the following molecule: COc1cc2c(cc1OC)CN(C(=O)C(C)(C)C)CC2
A: 17.6

Q: Return hERG current change (%, negative = inhibition) at 10uM for the following molecule: CCC(=O)c1ccc(N2CCN(C(=O)Cc3ccccc3)CC2)c(F)c1
A: -36.5

Q: Return hERG current change (%, negative = inhibition) at 10uM for the following molecule: CCCCCCNS(=O)(=O)c1ccc(NC(=O)C2CCCO2)cc1 (centres unmarked)
A: -21.8

Q: Return hERG current change (%, negative = inhibition) at 10uM for the following molecule: CCOc1ccc(NC(=S)N2CCC(C(O)(c3ccccc3)c3ccccc3)CC2)cc1
A: -13

Q: Return hERG current change (%, negative = inhibition) at 10uM for the following molecule: CCn1nnnc1SCC(=O)N1c2ccccc2CCc2ccccc21
A: 2.92
